Source listed as ChEMBL document CHEMBL4376834.

Study target: Platelet-derived growth factor receptor alpha (Homo sapiens)
Sequence (P16234 whole entry): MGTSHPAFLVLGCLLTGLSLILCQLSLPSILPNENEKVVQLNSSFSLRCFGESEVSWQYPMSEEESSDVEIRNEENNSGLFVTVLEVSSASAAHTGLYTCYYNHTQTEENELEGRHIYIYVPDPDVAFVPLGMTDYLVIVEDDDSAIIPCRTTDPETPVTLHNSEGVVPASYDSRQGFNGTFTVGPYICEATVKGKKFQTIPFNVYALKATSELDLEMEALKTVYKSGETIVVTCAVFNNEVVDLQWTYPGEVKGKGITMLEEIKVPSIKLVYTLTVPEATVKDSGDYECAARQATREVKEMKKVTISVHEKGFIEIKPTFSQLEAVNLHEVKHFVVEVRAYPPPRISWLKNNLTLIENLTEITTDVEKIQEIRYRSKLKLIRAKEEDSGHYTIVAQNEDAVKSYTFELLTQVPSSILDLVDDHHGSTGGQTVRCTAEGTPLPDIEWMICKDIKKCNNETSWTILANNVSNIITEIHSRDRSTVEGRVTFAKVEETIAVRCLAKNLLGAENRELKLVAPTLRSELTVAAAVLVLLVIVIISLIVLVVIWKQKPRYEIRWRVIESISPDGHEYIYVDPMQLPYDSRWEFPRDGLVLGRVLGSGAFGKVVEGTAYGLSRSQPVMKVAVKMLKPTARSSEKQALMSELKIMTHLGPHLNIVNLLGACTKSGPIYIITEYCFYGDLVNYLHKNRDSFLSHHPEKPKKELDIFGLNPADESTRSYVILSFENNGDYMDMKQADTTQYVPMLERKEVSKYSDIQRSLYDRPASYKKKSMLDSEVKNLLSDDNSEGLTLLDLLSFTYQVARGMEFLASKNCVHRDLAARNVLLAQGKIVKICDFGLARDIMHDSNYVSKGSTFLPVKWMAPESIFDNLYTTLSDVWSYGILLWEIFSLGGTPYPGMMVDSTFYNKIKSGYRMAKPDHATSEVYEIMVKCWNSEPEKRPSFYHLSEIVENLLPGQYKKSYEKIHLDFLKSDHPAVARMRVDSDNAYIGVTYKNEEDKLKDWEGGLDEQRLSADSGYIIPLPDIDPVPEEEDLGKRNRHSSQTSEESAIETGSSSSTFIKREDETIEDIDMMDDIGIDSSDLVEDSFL
Observed property: IC50

Input: Which value of IC50 has been reported for CN(C)c1ccc(C(=O)Nc2cccc(NC(=O)COc3ccc4c(=O)ccoc4c3)c2)cc1 in the records?
Output: > 10 µM

---

Study target: Activin receptor type-1B (Homo sapiens, UniProt P36896)
Protocol details: Inhibition of human recombinant ALK4 (150 to end residues) using casein as substrate incubated for 40 mins in presence of [gamma-33P]ATP by radiometric scintillation counting analysis
pIC50: −log10 of the molar value.
Observed property: pIC50

Input: Which value of pIC50 has been reported for CN(C)c1ccc(C(=O)Nc2cccc(NC(=O)COc3ccc4c(=O)ccoc4c3)c2)cc1 in the records?
Output: < 5.00

---

Study target: Tyrosine-protein kinase ITK/TSK (Homo sapiens, UniProt Q08881)
Sequence (Q08881 whole entry, the tested form may be a part): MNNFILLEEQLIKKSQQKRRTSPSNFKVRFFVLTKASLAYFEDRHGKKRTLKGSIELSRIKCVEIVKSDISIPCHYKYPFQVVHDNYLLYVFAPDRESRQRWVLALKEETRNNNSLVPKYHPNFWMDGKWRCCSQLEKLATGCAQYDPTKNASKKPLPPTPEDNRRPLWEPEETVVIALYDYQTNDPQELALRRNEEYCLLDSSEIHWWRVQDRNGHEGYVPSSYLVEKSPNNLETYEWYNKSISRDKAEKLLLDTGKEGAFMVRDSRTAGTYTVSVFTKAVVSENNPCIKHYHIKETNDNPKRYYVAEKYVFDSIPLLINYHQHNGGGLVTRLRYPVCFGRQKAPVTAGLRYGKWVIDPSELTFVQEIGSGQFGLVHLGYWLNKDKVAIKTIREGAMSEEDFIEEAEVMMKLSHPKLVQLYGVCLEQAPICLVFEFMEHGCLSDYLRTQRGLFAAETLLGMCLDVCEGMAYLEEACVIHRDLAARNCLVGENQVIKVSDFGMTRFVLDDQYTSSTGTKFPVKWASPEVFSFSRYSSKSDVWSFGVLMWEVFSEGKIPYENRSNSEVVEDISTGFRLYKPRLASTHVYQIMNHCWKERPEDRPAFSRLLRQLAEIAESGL
Protocol details: Inhibition of human recombinant Itk (352 to 617 residues) using myelin basic protein as substrate after 40 mins by [gamma-33ATP] by radiometric scintillation counting analysis
pIC50: −log10 of the molar value.
Observed property: pIC50

Input: Which value of pIC50 has been reported for CN(C)c1ccc(C(=O)Nc2cccc(NC(=O)COc3ccc4c(=O)ccoc4c3)c2)cc1 in the records?
Output: < 5.00

---

Study target: Serine/threonine-protein kinase Nek11 (Homo sapiens, UniProt Q8NG66)
Sequence (Q8NG66 whole entry): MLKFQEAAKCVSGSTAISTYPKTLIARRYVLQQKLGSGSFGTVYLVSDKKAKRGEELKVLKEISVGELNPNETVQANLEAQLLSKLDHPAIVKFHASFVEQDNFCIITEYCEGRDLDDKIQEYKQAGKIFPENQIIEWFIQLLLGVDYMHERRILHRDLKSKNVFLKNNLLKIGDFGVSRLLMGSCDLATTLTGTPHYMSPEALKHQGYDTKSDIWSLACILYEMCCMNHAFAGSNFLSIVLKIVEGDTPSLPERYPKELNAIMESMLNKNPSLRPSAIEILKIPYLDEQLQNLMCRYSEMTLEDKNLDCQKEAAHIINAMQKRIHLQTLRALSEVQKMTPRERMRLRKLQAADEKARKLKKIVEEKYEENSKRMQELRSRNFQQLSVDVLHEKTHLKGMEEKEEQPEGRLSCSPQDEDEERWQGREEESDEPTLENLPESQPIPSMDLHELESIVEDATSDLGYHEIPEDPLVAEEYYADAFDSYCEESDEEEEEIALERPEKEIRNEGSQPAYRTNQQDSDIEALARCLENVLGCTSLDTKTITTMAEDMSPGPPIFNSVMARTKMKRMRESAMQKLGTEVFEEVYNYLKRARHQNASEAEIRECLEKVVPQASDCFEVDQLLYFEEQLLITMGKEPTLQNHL
Protocol details: Inhibition of recombinant full length human NEK11 using myelin basic protein as substrate measured after 40 mins in presence of [gamma33P]ATP by radiometric scintillation counting analysis
Observed property: IC50

Input: Request - read-out IC50 | tested on Serine/threonine-protein kinase Nek11 (Homo sapiens, UniProt Q8NG66) | molecule CN(C)c1ccc(C(=O)Nc2cccc(NC(=O)COc3ccc4c(=O)ccoc4c3)c2)cc1
Output: > 10 µM

---

Study target: Tyrosine-protein kinase ABL1 (Homo sapiens, UniProt P00519, Y253F)
Protocol details: Inhibition of human recombinant ABL1 Y253F mutant (27 to end residues) using EAIYAAPFAKKK as substrate incubated for 40 mins in presence of [gamma-33P]ATP by radiometric scintillation counting analysis
pIC50: −log10 of the molar value.
Observed property: pIC50

Input: Which value of pIC50 has been reported for CN(C)c1ccc(C(=O)Nc2cccc(NC(=O)COc3ccc4c(=O)ccoc4c3)c2)cc1 in the records?
Output: < 5.00

---

Study target: Protein kinase C gamma type (Homo sapiens, UniProt P05129)
Protocol details: Inhibition of recombinant full-length human PKCgamma using histone H1 as substrate incubated for 40 mins in presence of [gamma33P]ATP by radiometric scintillation counting analysis
pIC50: −log10 of the molar value.
Observed property: pIC50

Input: Which value of pIC50 has been reported for CN(C)c1ccc(C(=O)Nc2cccc(NC(=O)COc3ccc4c(=O)ccoc4c3)c2)cc1 in the records?
Output: < 5.00

---

Study target: Fibroblast growth factor receptor 4 (Homo sapiens, UniProt P22455)
Sequence (P22455 whole entry, the tested form may be a part): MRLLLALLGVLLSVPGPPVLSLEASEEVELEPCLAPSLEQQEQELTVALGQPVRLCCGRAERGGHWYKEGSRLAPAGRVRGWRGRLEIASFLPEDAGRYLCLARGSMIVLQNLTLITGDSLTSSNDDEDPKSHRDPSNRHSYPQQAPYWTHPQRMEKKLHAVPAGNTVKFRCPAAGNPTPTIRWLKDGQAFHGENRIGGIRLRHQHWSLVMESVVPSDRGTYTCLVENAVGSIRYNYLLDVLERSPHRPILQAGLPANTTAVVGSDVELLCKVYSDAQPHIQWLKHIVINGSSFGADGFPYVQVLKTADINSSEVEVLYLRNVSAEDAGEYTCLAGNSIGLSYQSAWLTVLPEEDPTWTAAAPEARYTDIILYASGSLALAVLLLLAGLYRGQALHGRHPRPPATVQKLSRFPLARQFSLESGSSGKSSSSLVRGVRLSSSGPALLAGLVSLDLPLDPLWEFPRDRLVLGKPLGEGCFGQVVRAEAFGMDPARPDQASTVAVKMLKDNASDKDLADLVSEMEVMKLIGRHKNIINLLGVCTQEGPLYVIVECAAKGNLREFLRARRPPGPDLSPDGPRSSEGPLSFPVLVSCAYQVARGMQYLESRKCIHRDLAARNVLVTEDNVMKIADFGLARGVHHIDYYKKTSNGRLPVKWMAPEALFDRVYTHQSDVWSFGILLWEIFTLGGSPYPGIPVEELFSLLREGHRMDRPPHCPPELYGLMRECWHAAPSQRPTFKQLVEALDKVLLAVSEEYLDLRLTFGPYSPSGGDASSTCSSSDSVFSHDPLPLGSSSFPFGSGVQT
Protocol details: Inhibition of recombinant human FGFR4 (442 to 755 residues) using poly(Glu, Tyr) 4:1 as substrate after 40 mins in presence of [gamma-33ATP] by radiometric scintillation counting analysis
Observed property: IC50

Input: Which value of IC50 has been reported for CN(C)c1ccc(C(=O)Nc2cccc(NC(=O)COc3ccc4c(=O)ccoc4c3)c2)cc1 in the records?
Output: > 10 µM

---

Study target: Hepatocyte growth factor receptor (Homo sapiens, UniProt P08581, A1209G/V1290L)
Sequence (P08581 whole entry, looked up, stated change not applied): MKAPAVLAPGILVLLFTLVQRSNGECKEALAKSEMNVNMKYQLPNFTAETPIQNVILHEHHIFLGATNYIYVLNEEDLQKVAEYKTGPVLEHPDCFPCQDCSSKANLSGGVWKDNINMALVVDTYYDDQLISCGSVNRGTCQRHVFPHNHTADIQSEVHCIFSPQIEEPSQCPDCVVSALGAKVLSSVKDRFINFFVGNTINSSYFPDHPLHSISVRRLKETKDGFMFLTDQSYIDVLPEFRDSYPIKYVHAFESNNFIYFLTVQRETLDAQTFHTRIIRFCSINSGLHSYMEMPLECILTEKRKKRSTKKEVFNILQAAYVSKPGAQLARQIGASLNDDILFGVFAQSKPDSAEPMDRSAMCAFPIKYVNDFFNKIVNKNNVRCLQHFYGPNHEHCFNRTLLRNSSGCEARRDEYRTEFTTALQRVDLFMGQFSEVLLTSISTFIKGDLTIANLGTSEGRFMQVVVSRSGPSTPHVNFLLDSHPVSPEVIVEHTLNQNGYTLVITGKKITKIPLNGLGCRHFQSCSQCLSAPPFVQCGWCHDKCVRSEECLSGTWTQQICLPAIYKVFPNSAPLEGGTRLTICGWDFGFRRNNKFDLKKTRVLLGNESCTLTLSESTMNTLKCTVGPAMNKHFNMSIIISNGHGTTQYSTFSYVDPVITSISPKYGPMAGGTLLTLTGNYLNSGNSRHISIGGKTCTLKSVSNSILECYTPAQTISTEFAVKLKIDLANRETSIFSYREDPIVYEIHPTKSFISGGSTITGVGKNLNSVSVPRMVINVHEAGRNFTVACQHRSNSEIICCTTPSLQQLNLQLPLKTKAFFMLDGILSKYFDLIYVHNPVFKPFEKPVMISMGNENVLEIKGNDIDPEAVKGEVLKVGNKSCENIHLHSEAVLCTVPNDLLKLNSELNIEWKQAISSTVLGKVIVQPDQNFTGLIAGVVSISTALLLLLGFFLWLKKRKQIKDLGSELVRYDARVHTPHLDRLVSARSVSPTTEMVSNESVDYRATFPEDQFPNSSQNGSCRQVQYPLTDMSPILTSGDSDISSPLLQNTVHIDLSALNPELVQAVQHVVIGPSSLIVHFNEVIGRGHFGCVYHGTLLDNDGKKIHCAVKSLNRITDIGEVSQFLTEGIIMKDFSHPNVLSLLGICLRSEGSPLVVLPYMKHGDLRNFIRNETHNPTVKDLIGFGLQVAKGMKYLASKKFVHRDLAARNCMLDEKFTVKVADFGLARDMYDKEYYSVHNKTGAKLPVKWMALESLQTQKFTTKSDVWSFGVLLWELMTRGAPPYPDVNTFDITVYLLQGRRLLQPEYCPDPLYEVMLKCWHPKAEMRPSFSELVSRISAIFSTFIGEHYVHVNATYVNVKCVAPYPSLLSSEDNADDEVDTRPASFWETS
Protocol details: Inhibition of recombinant human MET A1209G/V1290L double mutant (974 to end residues) using KKKGQEEEYVFIE as substrate incubated for 40 mins in presence of [gamma-33ATP by radiometric scintillation counting analysis
Observed property: IC50

Input: Which value of IC50 has been reported for CN(C)c1ccc(C(=O)Nc2cccc(NC(=O)COc3ccc4c(=O)ccoc4c3)c2)cc1 in the records?
Output: > 10 µM
